# System: LoVo/DX
# protocol.notes: cells
# Assay type: cell-based, human
# conditions: Homo sapiens, LoVo/DX, 72 h, read-out: LoVo/DX IC50 (nM), 72 h exposure, SRB, mean ± SD
Threshold check on IC50: strictly below 500 nM is MET; on or above 500 nM is NOT MET.

// below: answered compounds
[[record]]
structure_string = "CNc1ccc2c(cc1=O)[C@@H](n1cc(COC(=O)CCC(F)(F)F)nn1)CCc1cc(OC)c(OC)c(OC)c1-2"
class_label = "MET"

[[record]]
structure_string = "CNc1ccc2c(cc1=O)[C@@H](n1cc(CCO)nn1)CCc1cc(OC)c(OC)c(OC)c1-2"
class_label = "NOT MET"

[[record]]
structure_string = "CNc1ccc2c(cc1=O)[C@@H](n1cc(CNC(=O)Oc3ccccc3)nn1)CCc1cc(OC)c(OC)c(OC)c1-2"
class_label = "NOT MET"


Problem: Does this compound meet the criterion IC50 < 500 nM? "CNc1ccc2c(cc1=O)[C@@H](n1cc(-c3ccc(Cl)cc3)nn1)CCc1cc(OC)c(OC)c(OC)c1-2"
Result: MET

Problem: For "CNc1ccc2c(cc1=O)[C@@H](n1cc(CN)nn1)CCc1cc(OC)c(OC)c(OC)c1-2" , is the recorded IC50 below the cut-off of 500 nM?
Result: NOT MET

Problem: hey, is IC50 for "CNc1ccc2c(cc1=O)[C@@H](n1cc(COC(=O)c3ccccc3Cl)nn1)CCc1cc(OC)c(OC)c(OC)c1-2" lower than 500 nM or not?
Result: MET

Problem: A record lists "CNc1ccc2c(cc1=O)[C@@H](n1cc(C(=O)OCc3ccc(F)cc3)nn1)CCc1cc(OC)c(OC)c(OC)c1-2" . Is its IC50 below 500 nM?
Result: NOT MET

###

Please respond with reported IC50 for every item in the list.
# System: A549
# protocol.notes: cells
# Assay type: cell-based, human
# conditions: Homo sapiens, A549, 72 h, read-out: A549 IC50 (nM), 72 h exposure, SRB, mean ± SD

[[record]]
structure_string = "CNc1ccc2c(cc1=O)[C@@H](n1cc(CNC(=O)OC(C)(C)C)nn1)CCc1cc(OC)c(OC)c(OC)c1-2"
measurement_name = "IC50"
result = "5.4 nM"

[[record]]
structure_string = "CCCCc1cn([C@H]2CCc3cc(OC)c(OC)c(OC)c3-c3ccc(NC)c(=O)cc32)nn1"
measurement_name = "IC50"
result = "6.4 nM"

[[record]]
structure_string = "CNc1ccc2c(cc1=O)[C@@H](n1cc(CO)nn1)CCc1cc(OC)c(OC)c(OC)c1-2"
measurement_name = "IC50"
result = "12 nM"


Problem: Looking for the measured IC50 of "CNc1ccc2c(cc1=O)[C@@H](n1cc(CNC(=O)c3ccncc3)nn1)CCc1cc(OC)c(OC)c(OC)c1-2" , can you help?
Result: 22 nM

###

# Tested on: LoVo
# protocol.notes: cells
# Assay type: cell-based, human
# conditions: Homo sapiens, LoVo; 72 h exposure, SRB, mean ± SD; read-out: LoVo IC50
measurement.name: IC50
State the value, then name its unit.

Problem: What does the record list as IC50 for COc1cccc2c1C(=O)c1c(O)c3c(c(O)c1C2=O)C[C@@](O)(C(=O)CO)C[C@@H]3O[C@H]1C[C@H](N)[C@H](O)[C@H](C)O1 [doxorubicin, reference compound] ?
Result: 52 nM
